assayed target: EGFR (human)
parameter: IC50 (nM)

molecule="COc1cc2c(Nc3cccc(Cl)c3F)ncnc2cc1O[C@@H]1CCN(C(=O)C2CCC(=O)N2)C1 (stereo partly specified)" number=397

Data provenance is the Kinase Knowledgebase extract (Sharma et al. 2016).
